Source of measurements: patent US12630553B2

# TRS (%) annotations
test: Stability test of salts of compound 1 (HPLC, XRD); assay type: physicochemical; details: 25° C. closed, day 5
Where a name gives a salt, the structure may show the parent alone.
Provide the reading as a plain figure in %.

Take a look at these entries with their results.
* CN[C@@H](C)C(=O)N[C@H]1CN(S(=O)(=O)c2cccc(S(=O)(=O)N3CC[C@H]4CC[C@@H](C(=O)NC(c5ccccc5)c5ccccc5)N4C(=O)[C@@H](NC(=O)[C@H](C)NC)C3)c2)CC[C@H]2CCC(C(=O)NC(c3ccccc3)c3ccccc3)N2C1=O (stereo partly shown) [compound 1 dihydrochloride amorphous form V] | 0.72
* CN[C@@H](C)C(=O)N[C@H]1CN(S(=O)(=O)c2cccc(S(=O)(=O)N3CC[C@H]4CC[C@@H](C(=O)NC(c5ccccc5)c5ccccc5)N4C(=O)[C@@H](NC(=O)[C@H](C)NC)C3)c2)CC[C@H]2CCC(C(=O)NC(c3ccccc3)c3ccccc3)N2C1=O (stereo partly shown) [Compound 1 dimethanesulfonate crystalline Form XVIII] | 2.51
* CN[C@@H](C)C(=O)N[C@H]1CN(S(=O)(=O)c2cccc(S(=O)(=O)N3CC[C@H]4CC[C@@H](C(=O)NC(c5ccccc5)c5ccccc5)N4C(=O)[C@@H](NC(=O)[C@H](C)NC)C3)c2)CC[C@H]2CCC(C(=O)NC(c3ccccc3)c3ccccc3)N2C1=O (stereo partly shown) [compound 1 disulfate amorphous form XXIII] | 2.45

Read the next record carefully.
Prompt: Dear colleague, I am looking for the recorded TRS (%) of the following compound: CN[C@@H](C)C(=O)N[C@H]1CN(S(=O)(=O)c2cccc(S(=O)(=O)N3CC[C@H]4CC[C@@H](C(=O)NC(c5ccccc5)c5ccccc5)N4C(=O)[C@@H](NC(=O)[C@H](C)NC)C3)c2)CC[C@H]2CCC(C(=O)NC(c3ccccc3)c3ccccc3)N2C1=O (stereo partly shown) [Compound 1 di-p-toluenesulfonate amorphous Form XVI]
Response: 1.66

====

assay: Stability test of salts of compound 1 (HPLC, XRD); format: physicochemical; details: 25° C. closed, day 5
Structures can show the parent of a compound that is named as a salt.
PROPERTY NAME: XPRD

* CN[C@@H](C)C(=O)N[C@H]1CN(S(=O)(=O)c2cccc(S(=O)(=O)N3CC[C@H]4CC[C@@H](C(=O)NC(c5ccccc5)c5ccccc5)N4C(=O)[C@@H](NC(=O)[C@H](C)NC)C3)c2)CC[C@H]2CCC(C(=O)NC(c3ccccc3)c3ccccc3)N2C1=O (stereo partly shown) [compound 1 disulfate amorphous form XXIII] | Amorphous
* CN[C@@H](C)C(=O)N[C@H]1CN(S(=O)(=O)c2cccc(S(=O)(=O)N3CC[C@H]4CC[C@@H](C(=O)NC(c5ccccc5)c5ccccc5)N4C(=O)[C@@H](NC(=O)[C@H](C)NC)C3)c2)CC[C@H]2CCC(C(=O)NC(c3ccccc3)c3ccccc3)N2C1=O (stereo partly shown) [compound 1 dihydrochloride amorphous form V] | Amorphous
* CN[C@@H](C)C(=O)N[C@H]1CN(S(=O)(=O)c2cccc(S(=O)(=O)N3CC[C@H]4CC[C@@H](C(=O)NC(c5ccccc5)c5ccccc5)N4C(=O)[C@@H](NC(=O)[C@H](C)NC)C3)c2)CC[C@H]2CCC(C(=O)NC(c3ccccc3)c3ccccc3)N2C1=O (stereo partly shown) [Compound 1 di-p-toluenesulfonate amorphous Form XVI] | Amorphous
